Biological target: T1, recombinant soluble human IL-6R (human, UniProt P08887 20-365)
T1 construct: also called sIL-6R; shIL-6R
T1 sequence: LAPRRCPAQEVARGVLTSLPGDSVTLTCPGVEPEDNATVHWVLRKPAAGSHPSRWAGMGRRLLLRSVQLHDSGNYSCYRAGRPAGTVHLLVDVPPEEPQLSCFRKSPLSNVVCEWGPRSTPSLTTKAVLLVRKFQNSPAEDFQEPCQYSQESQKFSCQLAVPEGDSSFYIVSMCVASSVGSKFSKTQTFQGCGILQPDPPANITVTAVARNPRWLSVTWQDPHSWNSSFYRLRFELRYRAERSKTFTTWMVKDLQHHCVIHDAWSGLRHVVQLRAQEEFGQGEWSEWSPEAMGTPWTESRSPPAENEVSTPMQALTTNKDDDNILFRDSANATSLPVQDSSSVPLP
Assay: gp130 ELISA (competition): inhibition of human sIL-6R/IL-6 complex binding to coated gp130; 20 ng/mL IL6R, 100 ng/mL IL6
Quantity Kind: IC50 (pM)
A number alone suffices; assume pM.

Report IC50, nothing else, for this binder: 3C12 (VHH, Llama ICVD from library 37-3, produced in E. coli; also called VIL-3C12; not shown: C-terminal Flag and 6xHis tags from vector pMEK222) VHH: EVQLVESGGGLAQLGGSLRLSCVASGNIFSSNTAGWFRQAPGKQREWVAGISIGGMPAYADSVKGRFTISRDNAKNTVYLQMNSLKPEDTAVYYCATGGTEYDYWGQGTQVTVSS
1890

Given the binder 7F6 (VHH, also called VIL-7F6; 'Wild type' 7F6; not shown: C-terminal Flag and 6xHis tags from vector pMEK222) VHH: EVQLVESGGGLVQAGGSTRLTCLASGSISSINVIGWYRQAPGKQRELVAMIGRGEGANYGDFAKGRFTISRDNSKNTVYLQMNSLKPEDTAVYYCYADYEDRDSPFNGSWGQGTQVTVSS , write its reported IC50.
110

For the binder 5G9 (VHH, also called VIL-5G9; 'Wild type' 5G9; not shown: C-terminal Flag and 6xHis tags from vector pMEK222) VHH: EVQLVESGGGLVQAGGSTRLTCKASGSIFNINSINVMAWYRQAPGKQRELVAIIGKGGGTNYADFVKGRFTISRDAAKNTVNLQMNSLKPEDTAVYYCYADYEDRDSPFNASWGQGTQVTVSS , report IC50.
160

Report IC50 for 4D3 (VHH, Llama ICVD from library 46-3, produced in E. coli; also called VIL-4D3; not shown: C-terminal Flag and 6xHis tags from vector pMEK222) VHH: EVQLVESGGGSVQAGESLTLSCVASISTFSQNAMGWFRQAAGKRRESVARISSSGNVGYTDAVKGRFTMSRDNAKKTVYLQMNSLKPEDTAVYYCNAYSMSGELAAPWGQGTQVTVSS
660
